Source of measurements: paper PMC4336329

target: human ether-à-go-go-related gene (hERG) potassium channel (human, UniProt Q12809); assay: primary screen, population patch clamp on CHO cells stably expressing hERG; higher = less effect of the substance;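 further: peak tail current of the secondary pulse compared with the same well before compound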
Sequence (Q12809 whole entry, looked up): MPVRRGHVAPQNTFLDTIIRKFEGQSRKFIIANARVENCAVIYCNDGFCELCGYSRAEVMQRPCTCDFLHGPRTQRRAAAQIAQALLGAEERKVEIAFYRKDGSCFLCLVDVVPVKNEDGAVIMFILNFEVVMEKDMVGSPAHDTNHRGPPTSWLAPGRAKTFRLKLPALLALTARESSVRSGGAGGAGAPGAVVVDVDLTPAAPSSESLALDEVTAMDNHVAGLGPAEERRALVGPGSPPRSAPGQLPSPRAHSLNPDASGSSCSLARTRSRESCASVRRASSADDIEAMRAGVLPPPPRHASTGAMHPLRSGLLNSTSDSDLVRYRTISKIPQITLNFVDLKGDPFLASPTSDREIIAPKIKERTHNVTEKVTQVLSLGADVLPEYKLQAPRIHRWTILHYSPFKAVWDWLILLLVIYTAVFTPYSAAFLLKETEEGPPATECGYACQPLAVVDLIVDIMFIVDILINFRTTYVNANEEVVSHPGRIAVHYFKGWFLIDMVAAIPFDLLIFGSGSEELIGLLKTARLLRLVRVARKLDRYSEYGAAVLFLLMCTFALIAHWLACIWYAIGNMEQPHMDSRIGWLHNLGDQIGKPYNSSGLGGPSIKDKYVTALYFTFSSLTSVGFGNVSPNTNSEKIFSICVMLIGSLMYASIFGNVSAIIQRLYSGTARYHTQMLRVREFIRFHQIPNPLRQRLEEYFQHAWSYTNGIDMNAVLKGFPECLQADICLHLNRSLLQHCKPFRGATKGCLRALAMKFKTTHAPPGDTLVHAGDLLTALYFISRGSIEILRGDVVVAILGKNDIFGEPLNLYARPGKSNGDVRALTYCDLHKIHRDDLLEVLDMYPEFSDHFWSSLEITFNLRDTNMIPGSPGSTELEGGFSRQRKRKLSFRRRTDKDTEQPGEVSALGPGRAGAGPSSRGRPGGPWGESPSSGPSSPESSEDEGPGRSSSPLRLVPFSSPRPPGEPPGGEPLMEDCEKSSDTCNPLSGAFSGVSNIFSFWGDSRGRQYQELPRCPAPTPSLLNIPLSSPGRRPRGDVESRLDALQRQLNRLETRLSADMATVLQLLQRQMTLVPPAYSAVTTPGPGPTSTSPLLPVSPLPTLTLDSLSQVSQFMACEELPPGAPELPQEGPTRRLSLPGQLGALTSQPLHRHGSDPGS
The whole screen tested about 310,000 compounds, of which about 14,000 (4.5%) showed an effect of 50% or more. Effects have a minus sign here. The full list was thinned out, with strong results kept by preference.
The following compounds are listed with their measured hERG current change (%, negative = inhibition) at 10uM values.
valueType: hERG current change (%, negative = inhibition) at 10uM (%)

compound | testResult
COC(=O)c1cc(NC(=O)CN(c2ccccc2OC)S(=O)(=O)c2ccccc2)ccc1Cl | 1.44
CCC(=O)N1CCN(c2ccc(NC(=O)c3ccc(C#N)cc3F)cc2Cl)CC1 | -7.73
O=C(Nc1ccc(N2CCOCC2)c(Cl)c1)c1cc(F)c(F)cc1Cl | -20.9
CNC(=O)c1ccccc1Sc1ccccc1C#N | 19.1
Cc1cc(C)c(S(=O)(=O)N(CC(=O)NCc2cccnc2)C2CCCCC2)c(C)c1 | -37.4
COC(=O)C1=C(C)N=c2s/c(=C/c3cccs3)c(=O)n2C1c1cccs1 (stereo not shown) | -7.35
COc1ccccc1S(=O)(=O)Cc1ccc(C(=O)NC2CC2)o1 | 18.5
COc1ccc(S(=O)(=O)N(CC(=O)NCc2cccnc2)C2CCCCC2)cc1OC | -12.7
CCCCSCCCNC(=O)c1cn(CC)c2ccc(S(=O)(=O)N3CCOCC3)cc2c1=O | -44.9
CCCCN(CC)CCCNC(=O)c1cn(CC)c2ccc(S(=O)(=O)N3CCc4ccccc4C3)cc2c1=O | -74.9
CCCCN(C)CCCNC(=O)c1cn(CC)c2ccc(S(=O)(=O)N3CCOCC3)cc2c1=O | 10.3
COCCN1CCN(Cc2nc(C3(c4ccc(C)cc4)CCCC3)no2)CC1 | -9.3
O=C(Nc1ccc(N2CCOCC2)c(Cl)c1)c1ccccc1F | 3.56
O=C(NC(Cc1c[nH]c2ccccc12)C(=O)O)/C(=C\c1ccccc1)NC(=O)c1ccccc1 (stereo not shown) | 9.54
CCN1CCN(c2ccc(NC(=O)c3ccco3)cc2Cl)CC1 | -4.06
COC(=O)C(c1cc(OC)c(O)c(OC)c1)(N1CCNC(C)C1)C(F)(F)F (stereo not shown) | -9.77
CCOC(=O)c1[nH]c(C)c(C(=O)Nc2ccccc2F)c1C | -11.2
O=C(CN(C1CCCCC1)S(=O)(=O)c1ccccc1)NCc1cccnc1 | -30
CCN1CCN(c2ccc(NC(=O)c3ccc(C#N)cc3F)cc2Cl)CC1 | -72.1
